Cited source: patent US6642251B1

STUDY SYSTEM: IGF-1 receptor (Homo sapiens)
Sequence (P08069 31-1367): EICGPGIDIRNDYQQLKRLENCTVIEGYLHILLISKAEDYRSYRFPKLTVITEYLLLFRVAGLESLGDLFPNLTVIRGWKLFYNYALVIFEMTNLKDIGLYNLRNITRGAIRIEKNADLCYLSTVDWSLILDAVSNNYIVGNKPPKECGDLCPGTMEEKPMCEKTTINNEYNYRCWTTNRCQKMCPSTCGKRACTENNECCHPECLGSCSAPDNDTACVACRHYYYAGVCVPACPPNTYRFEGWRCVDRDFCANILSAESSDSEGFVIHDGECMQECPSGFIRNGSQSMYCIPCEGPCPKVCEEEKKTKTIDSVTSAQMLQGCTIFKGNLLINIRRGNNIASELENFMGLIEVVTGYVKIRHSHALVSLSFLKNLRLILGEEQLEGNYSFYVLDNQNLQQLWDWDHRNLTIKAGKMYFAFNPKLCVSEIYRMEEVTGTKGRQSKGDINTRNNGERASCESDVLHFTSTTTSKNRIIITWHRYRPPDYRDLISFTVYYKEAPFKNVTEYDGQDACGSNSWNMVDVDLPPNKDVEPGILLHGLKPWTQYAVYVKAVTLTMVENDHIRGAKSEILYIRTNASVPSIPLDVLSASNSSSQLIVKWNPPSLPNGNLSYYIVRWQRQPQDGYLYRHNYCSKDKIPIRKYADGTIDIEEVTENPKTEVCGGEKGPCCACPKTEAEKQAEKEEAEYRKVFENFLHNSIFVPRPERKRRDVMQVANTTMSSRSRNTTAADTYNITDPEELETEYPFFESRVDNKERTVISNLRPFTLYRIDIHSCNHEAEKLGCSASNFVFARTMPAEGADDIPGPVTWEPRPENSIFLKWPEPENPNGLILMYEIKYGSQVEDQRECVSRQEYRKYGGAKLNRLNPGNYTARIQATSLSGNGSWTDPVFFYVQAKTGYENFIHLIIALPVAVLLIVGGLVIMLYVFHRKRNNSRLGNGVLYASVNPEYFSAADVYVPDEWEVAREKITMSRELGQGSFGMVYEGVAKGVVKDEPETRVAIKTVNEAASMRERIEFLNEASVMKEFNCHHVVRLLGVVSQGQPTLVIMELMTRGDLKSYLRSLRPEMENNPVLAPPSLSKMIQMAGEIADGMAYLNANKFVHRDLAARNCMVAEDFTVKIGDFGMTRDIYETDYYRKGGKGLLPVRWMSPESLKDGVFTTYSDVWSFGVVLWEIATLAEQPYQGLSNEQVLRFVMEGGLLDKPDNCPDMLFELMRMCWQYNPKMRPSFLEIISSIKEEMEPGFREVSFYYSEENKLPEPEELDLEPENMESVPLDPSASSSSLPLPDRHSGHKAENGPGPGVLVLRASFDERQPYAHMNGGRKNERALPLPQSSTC
ASSAY: Cellular IGF-1 receptor assay (cell IGF)
APPLIED CONDITIONS: 50% inhibition of target PTK activity
Experimental: The following protocol may be used to measure phosphotyrosine level on IGF-1 receptor, which indicates IGF-1 receptor tyrosine kinase activity. a. The cell line used in this assay is 3T3/IGF-1R, a cell line genetically engineered to overexpresses IGF-1 receptor. 2. […] Incubate for 1 day then replace medium to serum-free medium (90/μl) and incubate in 5% CO2 and 37° C. overnight. 2. Remove the coating solution, and replace with 100 μl Blocking Buffer, and shake for 30 minutes. […]
Quick list: IC50 per entry.

Please review the entries below; each comes with its answer.
{"COMPOUND": "COc1cc2c(cc1OC)/C(=C1\\C(=O)Nc3ccccc31)CC2", "IC50": "> 25 µM"}
{"COMPOUND": "COc1ccc2c(c1)C(CC(=O)O)C/C2=C1/C(=O)Nc2ccccc21 (stereo not shown)", "IC50": "> 100 µM"}
{"COMPOUND": "O=C1Nc2ccccc2/C1=C1\\CCc2ccccc21 [Compound 10, 3-Indan-1-ylidene-1,3-dihydroindol-2-one]", "IC50": "> 100 µM"}

Now for another entry.
Q: So what's the measured IC50 for this one? COc1ccc2c(c1)C(CC(=O)[O-])CC2=C1C(=O)Nc2ccccc21.[Na+] (stereo not shown) [Compound 13, Sodium Salt]
A: > 100 µM
